Recorded % inhibition apPOL 180' for the following molecules
targetOrTestSystem: P. falciparum apicoplast DNA polymerase (Pf-apPOL) (Plasmodium falciparum, UniProt Q8ILY1)
Sequence (Q8ILY1 entry or part of it): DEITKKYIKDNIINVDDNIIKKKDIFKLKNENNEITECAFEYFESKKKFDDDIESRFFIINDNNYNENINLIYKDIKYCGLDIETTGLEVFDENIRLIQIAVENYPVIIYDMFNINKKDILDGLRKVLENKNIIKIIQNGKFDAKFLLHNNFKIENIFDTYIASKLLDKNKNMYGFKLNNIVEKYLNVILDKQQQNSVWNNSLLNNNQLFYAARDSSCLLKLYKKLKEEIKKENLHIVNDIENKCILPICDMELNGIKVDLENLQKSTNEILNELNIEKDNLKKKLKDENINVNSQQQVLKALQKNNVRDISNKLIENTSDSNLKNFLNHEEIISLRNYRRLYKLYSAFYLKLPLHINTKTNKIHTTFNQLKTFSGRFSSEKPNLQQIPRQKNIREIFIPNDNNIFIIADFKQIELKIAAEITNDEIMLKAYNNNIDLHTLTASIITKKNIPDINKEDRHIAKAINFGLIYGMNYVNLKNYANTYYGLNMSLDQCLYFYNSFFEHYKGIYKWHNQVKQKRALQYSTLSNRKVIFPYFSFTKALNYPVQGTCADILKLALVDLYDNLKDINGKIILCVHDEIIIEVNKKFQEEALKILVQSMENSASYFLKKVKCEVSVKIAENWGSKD
assaySummary: Fluorescence-based high-throughput DNA polymerase assay (molecular beacon), primary screen and dose-response;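 for % inhibition apPOL 180': test concentration in µM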
Format: biochemical
setupConditions: DRC-2, 180', concentration 2.5
Please reply with the bare figure in % and do not write the unit itself.

# molecule, % inhibition apPOL 180' (%)
records = [
    ("CCOc1ccccc1-c1nc(-c2ccc(=O)[nH]c2)no1 [Molecule 76, CCOc1ccccc1c1onc(n1)c1ccc(=O)[nH]c1]", -3),
    ("CC1=NNC(=O)C1Oc1ccc(Cl)cc1Cl (stereo not shown)", -3.43),
    ("COc1cc(/C=C2\\S/C(=N/C(C)=O)NC2=O)cc(Br)c1OCC(=O)O", 1.62),
    ("O=C(O)CC1=NN(c2cccc([N+](=O)[O-])c2)C(=O)C1", 2),
]

For reference, reported % inhibition apPOL 180' for `COc1ccc2c(c1)CCc1c-2nc2ccc(Br)cc2c1C(=O)O` stands at 7

% inhibition apPOL 180' for CCOC(=O)C(NCc1ccco1)(NC(=O)c1ccco1)C(F)(F)F (stereo not shown) is -2.49

// % inhibition apPOL 180' lookup, molecule = `O=[N+]([O-])c1cc2c(cc1CN1CCCCCC1)OCO2` , result: 0.644

* * *

targetOrTestSystem: P. falciparum apicoplast DNA polymerase (Pf-apPOL) (Plasmodium falciparum, UniProt Q8ILY1)
assaySummary: Fluorescence-based high-throughput DNA polymerase assay (molecular beacon), primary screen and dose-response;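 for % inhibition ApPOL 90': test concentration in µM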
Assay type: biochemical
setupConditions: DRC-2; 90'; concentration 20
measure: % inhibition ApPOL 90' (%)
Write down the numeric answer in % and omit the unit.

Some compounds with known % inhibition ApPOL 90' results, for comparison:
# compound, measurementUnit, % inhibition ApPOL 90'
records = [
    ("COc1ccc(C2CC(c3ccc(Cl)cc3Cl)Nc3nc(N)nn32)cc1OC (stereo not drawn)", "%", 42),
    ("CCOc1cccc2cc(C(=O)Nc3nnc(-c4ccno4)o3)oc12", "%", 56),
    ("Nc1c(S(=O)(=O)O)cc(Nc2ccccc2)c2c1C(=O)c1ccccc1C2=O", "%", 81),
    ("CCN1C(=O)C(=Cc2cccc(OC)c2O)SC1=S", "%", 8),
]

Recorded result, CC(NC(=O)Cc1cc(=O)[nH]c(SCc2cccc(Cl)c2)n1)c1ccccc1 (stereo not drawn) , % inhibition ApPOL 90': 48

Reported % inhibition ApPOL 90' for `Cn1nc(C(=O)N2CCc3c(nc4cc(-c5ccccc5)[nH]n4c3=O)C2)c2ccccc21` was 54

`Cc1cccc(-c2noc(C(=O)NNC(=O)C(Cl)(Cl)Cl)n2)c1` yielded % inhibition ApPOL 90' of 24

* * *

targetOrTestSystem: UniProt:Q8ILY1
assaySummary: Fluorescence-based high-throughput DNA polymerase assay (molecular beacon), primary screen and dose-response
Assay type: biochemical
setupConditions: DRC-1; 10'; conc 2.5
We begin with a simple list: items and their reported % inhibition Apo pol 10'.
The reply should read as a number followed by its unit.

Some molecules with known % inhibition Apo pol 10' results, for comparison:
# molecule, recordedResult
data = [
    ("C=CC1=C(C)c2cc3[nH]c(cc4nc(cc5[nH]c(cc1n2)c(C)c5CCC(=O)O)C(CCC(=O)O)=C4C)c(C)c3C=C", "61.8295%"),
    ("O=C1Nc2ccc(I)cc2C1=Cc1cc(Br)c(O)c(Br)c1", "-2.766%"),
    ("C=CCOc1c(Br)cc(Br)cc1/C=C1\\SC(=N)NC1=O", "4.163%"),
    ("N#CC(C#N)=C1SCN(c2cccc(Cl)c2)CS1", "21.8228%"),
    ("O=c1nc(/C=C/c2ccc(Br)cc2)oc2ccccc12", "-0.8795%"),
    ("Cc1cccc(NC(=O)Cn2ccc3c(=O)[nH]ccc32)c1C [Molecule 11, O=C(Cn1ccc2c1cc[nH]c2=O)Nc1cccc(c1C)C]", "3.616%"),
    ("Cc1ccc(NC(=O)Cn2ccc3c(=O)[nH]ccc32)c(C)c1", "10.1191%"),
    ("Cc1ccccc1NC(=O)Cn1ccc2c(=O)[nH]ccc21 [Molecule 50, O=C(Cn1ccc2c1cc[nH]c2=O)Nc1ccc(cc1)C]", "6.138%"),
]

// field: % inhibition Apo pol 10'; key: `Cc1ccc(CNC(=O)c2cnn3c(O)cc(CSc4ccc(Cl)cc4)nc23)cc1` ; value = 17.7402%

Query `CC(C)CCNC(=O)c1cnn2c(O)cc(CSc3ccc(Cl)cc3)nc12` yields % inhibition Apo pol 10' of 0.1018%

Entry `Cc1cccc(C2=N/C(=C\c3ccc([N+](=O)[O-])o3)C(=O)O2)c1` — recorded % inhibition Apo pol 10' = 31.9938%

Reported % inhibition Apo pol 10' for `O=C1NN(c2ccc(Cl)c(Cl)c2)C(=O)/C1=C/c1ccc(-c2ccc3c(c2)C(=O)OC3)o1` was 36.4105%

GET /value?item= Cc1cc(C)c2c(c1)C1C=CCC1C(c1ccc(C(=O)O)cc1)N2 (stereo not drawn) &field=% inhibition Apo pol 10' returns 46.2676%

Noted for COc1ccccc1C1CC(=O)Oc2cc3c(cc21)OCO3 (stereo not drawn) : its % inhibition Apo pol 10' reads 16.5835%

Given item `Cc1ccc(N2NC(=O)/C(=C\c3ccc(O)c([N+](=O)[O-])c3)C2=O)cc1Cl` , the value recorded as its % inhibition Apo pol 10' is 22.1005%

The measured % inhibition Apo pol 10' associated with CCOc1nc2cccc(C(=O)OC(C)OC(=O)OC3CCCCC3)c2n1Cc1ccc(-c2ccccc2-c2nnn[nH]2)cc1 (stereo not drawn) reads 6.803%

Item: `O=C(O)c1ccc(COc2cc([N+](=O)[O-])cc3cccnc23)cc1` | % inhibition Apo pol 10': 14.3649%

`COC(=O)c1sc(-c2ccc(C(C)(C)C)cc2)cc1NC(=O)CCC(=O)O` has a reported % inhibition Apo pol 10' of 19.7971%

The measurements presented in this section are drawn from paper PMC9090415.
